Reference source: patent US10064926B2

- Target Entity: HLA-A*02 (Homo sapiens, UniProt P04439, D140Y/D185E/D98H/E176V/E277Q/G131W/G231S/I119V/I121R/I166T/I218V/N151K/N90K/P208A/P217A/Q86G/Q94H/R138H/R169H)
- Test: UV-ligand exchange / peptide binding to MHC class I (beta2m ELISA)
- Condition Set: Table 10B; peptide exchange yield; HLA-A*02 peptides
Quantity Measured: Peptide exchange (MHC class I binding score)

>>> result("47 (FLDTPIAKV; listed as Homo sapiens) [compound 47]")
"“++” (≥20% = ++)"
>>> result("130 (ALDAGAVYTL; listed as Homo sapiens) [compound 130]")
"“++++” (≥75% = ++++)"
>>> result("8 (KLLEEATISV; listed as Homo sapiens) [compound 8]")
"“+++” (≥50 = +++)"
>>> result("37 (LLLPLLPPLSP; listed as Homo sapiens) [compound 37]")
"“+++” (≥50 = +++)"
>>> result("124 (LLIDVVTYL; listed as Homo sapiens) [compound 124]")
"“++++” (≥75% = ++++)"
>>> result("82 (NVFDGLVRV; listed as Homo sapiens) [compound 82]")
"“+++” (≥50 = +++)"
>>> result("257 (SLLEKAGPEL; listed as Homo sapiens) [compound 257]")
"“+++” (≥50 = +++)"
>>> result("292 (RIPAYFVTV; listed as Homo sapiens) [compound 292]")
"“++” (≥20% = ++)"
>>> result("291 (QLIDYERQL; listed as Homo sapiens) [compound 291]")
"“+++” (≥50 = +++)"
>>> result("64 (KILEETLYV; listed as Homo sapiens) [compound 64]")
"“+++” (≥50 = +++)"
>>> result("56 (GVLPGLVGV; listed as Homo sapiens) [compound 56]")
"“+++” (≥50 = +++)"
>>> result("77 (LLHEENFSV; listed as Homo sapiens) [compound 77]")
"“+++” (≥50 = +++)"
>>> result("299 (ALLRVTPFI; listed as Homo sapiens) [compound 299]")
"“+++” (≥50 = +++)"
>>> result("6 (KLSPTVVGL; listed as Homo sapiens) [compound 6]")
"“+++” (≥50 = +++)"
>>> result("32 (ALNAVRLLV; listed as Homo sapiens) [compound 32]")
"“++++” (≥75% = ++++)"
>>> result("243 (GLLDNPELRV; listed as Homo sapiens) [compound 243]")
"“+++” (≥50 = +++)"
>>> result("297 (TLFYSLREV; listed as Homo sapiens) [compound 297]")
"“+++” (≥50 = +++)"
>>> result("11 (SLSQELVGV; listed as Homo sapiens) [compound 11]")
"“+++” (≥50 = +++)"
>>> result("66 (KLHEEIDRV; listed as Homo sapiens) [compound 66]")
"“+++” (≥50 = +++)"
>>> result("113 (VLMDKLVEL; listed as Homo sapiens) [compound 113]")
"“++++” (≥75% = ++++)"
>>> result("14 (ALADLTGTVV; listed as Homo sapiens) [compound 14]")
"“++++” (≥75% = ++++)"
>>> result("12 (FLAELAYDL; listed as Homo sapiens) [compound 12]")
"“++++” (≥75% = ++++)"
>>> result("36 (ILNVDGLIGV; listed as Homo sapiens) [compound 36]")
"“+++” (≥50 = +++)"
>>> result("80 (LLYEGKLTL; listed as Homo sapiens) [compound 80]")
"“++++” (≥75% = ++++)"
>>> result("152 (KLDNNLDSV; listed as Homo sapiens) [compound 152]")
"“+++” (≥50 = +++)"
>>> result("296 (SLLSGRISTL; listed as Homo sapiens) [compound 296]")
"“+++” (≥50 = +++)"
>>> result("240 (FLWERPTLLV; listed as Homo sapiens) [compound 240]")
"“+++” (≥50 = +++)"
>>> result("276 (ALLEADVNIKL; listed as Homo sapiens) [compound 276]")
"“++++” (≥75% = ++++)"
>>> result("83 (QLHDFVMSL; listed as Homo sapiens) [compound 83]")
"“++++” (≥75% = ++++)"
>>> result("40 (ALLAEGITWV; listed as Homo sapiens) [compound 40]")
"“+++” (≥50 = +++)"
>>> result("68 (KLLAATVLLL; listed as Homo sapiens) [compound 68]")
"“++” (≥20% = ++)"
>>> result("2 (KLQAGTVFV; listed as Homo sapiens) [compound 2]")
"“+++” (≥50 = +++)"
>>> result("256 (SLFQGVEFHYV; listed as Homo sapiens) [compound 256]")
"“+++” (≥50 = +++)"
>>> result("98 (SLLSPEHLQYL; listed as Homo sapiens) [compound 98]")
"“+++” (≥50 = +++)"
>>> result("31 (YQMDIQQEL; listed as Homo sapiens) [compound 31]")
"“+++” (≥50 = +++)"
>>> result("71 (KLLDNWDSV; listed as Homo sapiens) [compound 71]")
"“++++” (≥75% = ++++)"
>>> result("274 (ALAEALKEV; listed as Homo sapiens) [compound 274]")
"“++++” (≥75% = ++++)"
>>> result("242 (GLFAPVHKV; listed as Homo sapiens) [compound 242]")
"“+++” (≥50 = +++)"
>>> result("30 (YLGEGPRMV; listed as Homo sapiens) [compound 30]")
"“+++” (≥50 = +++)"
